Source: patent US7008953B2

Molecular target: stress-activated protein kinase 2b (SAPK-2b or p38β2) (Homo sapiens, UniProt Q15759)
Sequence (Q15759 whole entry): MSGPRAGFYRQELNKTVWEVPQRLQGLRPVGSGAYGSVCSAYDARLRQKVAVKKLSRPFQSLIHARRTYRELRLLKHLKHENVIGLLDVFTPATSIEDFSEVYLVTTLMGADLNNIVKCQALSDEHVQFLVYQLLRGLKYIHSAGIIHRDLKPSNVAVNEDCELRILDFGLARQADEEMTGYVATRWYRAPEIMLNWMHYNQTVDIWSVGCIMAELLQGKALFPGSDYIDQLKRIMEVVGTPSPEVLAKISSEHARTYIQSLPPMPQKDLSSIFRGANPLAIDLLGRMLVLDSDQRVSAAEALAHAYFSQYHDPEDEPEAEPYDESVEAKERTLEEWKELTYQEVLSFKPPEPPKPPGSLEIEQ
Assay: Panel of protein kinases: SAPK-2b
Assay type: biochemical
Settings: method of Davies et al.
experimental endpoint: Kinase SAPK-2b inhibition

[[record]]
compound = "CCNCc1cncc(-c2ccc3[nH]nc(-c4nc5c(NC(C)=O)cccc5[nH]4)c3c2)c1C [D]"
experimental_endpoint = "Kinase SAPK-2b inhibition"
measured_value = "− (Weak inhibition <50%)"

[[record]]
compound = "CCNCc1cncc(-c2ccc3[nH]nc(-c4nc5cc(F)ccc5[nH]4)c3c2)c1C [Example 2]"
experimental_endpoint = "Kinase SAPK-2b inhibition"
measured_value = "− (Weak inhibition <50%)"

[[record]]
compound = "CCNCc1cncc(-c2ccc3[nH]nc(-c4nc5c(SC)cccc5[nH]4)c3c2)c1C [C]"
experimental_endpoint = "Kinase SAPK-2b inhibition"
measured_value = "− (Weak inhibition <50%)"

[[record]]
compound = "CCNCc1cncc(-c2ccc3[nH]nc(-c4nc5c(F)cc(F)cc5[nH]4)c3c2)c1C [Example 1]"
experimental_endpoint = "Kinase SAPK-2b inhibition"
measured_value = "− (Weak inhibition <50%)"

[[record]]
compound = "CCNCc1cncc(-c2ccc3[nH]nc(-c4nc5ccccc5[nH]4)c3c2)c1C [A]"
experimental_endpoint = "Kinase SAPK-2b inhibition"
measured_value = "− (Weak inhibition <50%)"

[[record]]
compound = "CCNCc1cncc(-c2ccc3[nH]nc(-c4nc5c(C(=O)NC)cccc5[nH]4)c3c2)c1C [B]"
experimental_endpoint = "Kinase SAPK-2b inhibition"
measured_value = "− (Weak inhibition <50%)"

